- Tested on: Human colon cancer HT-29 transplantable tumor
- test: Human colon cancer HT-29 transplantable tumor in nude mice
- conditions used: HT-29 in nude mice, 60 mg/kg ig 9 times
In this section we review reported Relative tumor reproduction rate T/C (%) values for a set of compounds.

chemical smiles	Relative tumor reproduction rate T/C (%)
Nc1ccc2c(Oc3ccc(NC(=O)Nc4ccc(F)c(C(F)(F)F)c4)cc3)cncc2c1	41.1%
COc1ncncc1Oc1ccc(NC(=O)Nc2ccc(F)c(C(F)(F)F)c2)cc1	39.7%
CNC(=O)c1ncc(Oc2ccc(NC(=O)Nc3ccc(Cl)c(C(F)(F)F)c3)cc2)c(OC)n1	40.1%
CCc1cc(NC(=O)Nc2ccc(Oc3ccnc4cc(F)c(C)cc34)cc2)ccc1Cl	39.9%
CNC(=O)c1nc(Oc2ccc(NC(=O)Nc3ccc(Br)c(C(F)(F)F)c3)cc2)c2ccc(F)cc2n1	39.58%
CNC(=O)c1cc(Oc2ccc(NC(=O)Nc3ccc(F)c(C(F)(F)F)c3)cc2)c(C)[nH]1	40.1%
O=C(Nc1ccc(Oc2ncnc3cc(F)ccc23)cc1)Nc1ccc(Cl)c(C(F)(F)F)c1	39.4%
